Origin of the recorded values: the METLIN SMRT retention time set (Domingo-Almenara et al. 2019)

Assay: gradient 5% acetonitrile 3 min, to 50% in 2 min, to 85% in 15 min, held 3 min, 100 µL/min
Details: column: Zorbax Extend-C18 2.1 x 50 mm; eluents: water / acetonitrile, 0.1% formic acid
Please note: Fulfilled applies when RP-LC retention time is 800 s or greater, and Not fulfilled applies otherwise.

CC(C)N1CCn2c(nc3cc(C(=O)NC4CCCCCC4)ccc32)C1=O :: Not fulfilled
CC(C)c1noc(-c2cc(=O)n(CC(=O)NCc3ccccc3)c3ccccc23)n1 :: Fulfilled
Cc1nc(-c2ccc3c(c2)n(CC(=O)NC2CC2)c(=O)n3C(C)C)no1 :: Not fulfilled
CC(C)CN(C1CCOCC1)C1CN(C(=O)c2cnccn2)C1 :: Not fulfilled

QUERY: Tell me whether RP-LC retention time is at least 800 s here: CCCS(=O)(=O)N1CCc2ccc(NC(=O)c3cccn(C)c3=O)cc2C1
RESULT: Not fulfilled

QUERY: Further, for CCn1nccc1C(=O)Nc1cnc(N2CCCCCC2)nc1 ?
RESULT: Fulfilled

QUERY: Further, for Cc1nnc(C2CC3(CCN(CCCO)CC3)CN2CCc2ccccc2)o1 (stereo not given) ?
RESULT: Not fulfilled

QUERY: Further, for CC(C)CN1CCN(C(=O)CN2CCN(Cc3ccccc3)C2=O)CC1 ?
RESULT: Not fulfilled
